biological target: T1, human CLDN18.2 (human); experiment: flow cytometry, live cells from mouse tumor of A549 cells expressing CLDN18.2, antibody 4 µg/ml
T1 construct: also called huCLDN18.2; hCLDN18.2
Listed binders paired with reported % of positive tumor cells (Mouse 1)
Numeric only. Scale: %

binder | % of positive tumor cells (Mouse 1), %
cCl1-1 (antibody, V domains shown, Chimeric antibody from a rat hybridoma; not built in; also called chimeric cCl1-1 antibody) VH: QIQLVQSGPELKKPGESVKISCKASGYTFTDYAMHWVKQAPGKGLKWMGWINTYTGKPTYADDFKGRFVFSLEASASTANLQISNLKNEDTATYFCARAVFYGYTMDAWGQGTSVTVSS VL: DIQMTQSPASLSASLGETISIACRASEDIYSNLAWYQQKSGKSPQLLIFSVKRLQDGVPSRFSGSGSGTQYSLKISGMQPEDEGDYFCLQGSNFPLTFGSGTKLEIK | 37

Now consider a different binder.
IN: I would be grateful if you could share the reported % of positive tumor cells (Mouse 1) for hCl1c (antibody, human IgG1, kappa, V domains shown, Humanized) VH: QVQLVQSGAEVKKPGASVKVSCKASGYTFTDYAMHWVRQAPGQRLEWMGWINTYTGKPTYSQKFQGRVTITRDTSASTAYMELSSLRSEDTAVYYCARAVFYGYTMDAWGQGTLVTVSS VL: DIQMTQSPSSLSASVGDRVTITCRTSEDIYSNLAWYQQKPGKAPKLLIFAIKRLQDGVPSRFSGSGSGTDFTLTISSLQPEDFATYYCLQGSKFPLTFGQGTKVEIKR .
OUT: 29
